Parameter Corn plant response rating: see the listing below.
# Test system: corn
# methodDescription: Test B pre/postemergence corn
# Format: in vivo, Zea mays
# conditions: Preemergence, Rate 125 g/ha; scale 0 to 10, 0 is no effect, 10 is complete control
Reply with just the number.

## Input Look up and report measured Corn plant response rating (corn) for the following molecule: CC(C)N(C(=O)n1oc(=O)n(CC2=CCCCC2)c1=O)c1ccccc1 [Compound 496]
## Output 0

## Input GET Corn plant response rating | system: corn | item: CC(C)N(C(=O)n1oc(=O)n(CCC(F)(F)F)c1=O)c1ccc(Cl)cc1 [Compound 554]
## Output 0

## Input Please report Corn plant response rating with corn for item COCCOCn1c(=O)on(C(=O)N(c2ccc(F)cc2F)C(C)C)c1=O [Compound 505] .
## Output 2

## Input Report Corn plant response rating from corn testing of CC(C)N(C(=O)n1oc(=O)n(CC2=CCCN(C)C2)c1=O)c1ccccc1 [Compound 497]
## Output 0

## Input Recall the reported Corn plant response rating of CC(C)=CCn1c(=O)on(C(=O)N(c2ccc(F)cc2F)C(C)C)c1=O [Compound 515] on corn and write it down.
## Output 0

----------
# Test system: sugar beet
# methodDescription: Test B pre/postemergence sugar beet
# Assay type: in vivo, Beta vulgaris
# conditions: Preemergence, Rate 500 g/ha; scale 0 to 10 (0 no effect, 10 complete control)
measurementLabel: Sugarbeets plant response rating
Just the number.

Sample answers from the record:
>  <compoundSmiles>
CC(C)N(C(=O)n1oc(=O)[nH]c1=O)c1ccc(F)cc1

>  <measurement>
0

$$$$
>  <compoundSmiles>
CC(C)N(C(=O)n1oc(=O)n(C(C)(C)C)c1=O)c1ccccc1

>  <measurement>
5

$$$$
>  <compoundSmiles>
CCN(C(=O)n1oc(=O)n(N(C)c2ccccc2)c1=O)C1CCCCC1

>  <measurement>
0

$$$$
>  <compoundSmiles>
CC(C)N(C(=O)n1oc(=O)n(C)c1=O)c1ccc(Cl)cc1

>  <measurement>
10

$$$$

Now look at this one.
## Input State its Sugarbeets plant response rating for this molecule: `CN(C(=O)n1oc(=O)n(Cc2ccccc2)c1=O)c1ccccc1`
## Output 0

----------
# Test system: sugar beet
# methodDescription: Test B pre/postemergence sugar beet
# Assay type: in vivo, Beta vulgaris
# conditions: Postemergence, Rate 500 g/ha; scale 0 to 10, 0 is no effect, 10 is complete control
measurementLabel: Plant response rating, Sugarbeets
Kindly provide the number alone.

Reference set, count: 3
>  <compound>
CCCCn1c(=O)on(C(=O)N(c2ccc(Cl)cc2)C(C)C)c1=O [Compound 527]

>  <testedTarget>
sugar beet

>  <Plant response rating, Sugarbeets>
2

$$$$
>  <compound>
CC(C)C(=O)Cn1c(=O)on(C(=O)N(c2ccc(F)cc2F)C(C)C)c1=O [Compound 486]

>  <testedTarget>
sugar beet

>  <Plant response rating, Sugarbeets>
2

$$$$
>  <compound>
Cc1noc(C)c1Cn1c(=O)on(C(=O)N(c2ccc(F)cc2F)C(C)C)c1=O [Compound 510]

>  <testedTarget>
sugar beet

>  <Plant response rating, Sugarbeets>
8

$$$$

Now for another entry.
## Input For the compound COC(=O)CCCn1c(=O)on(C(=O)N(c2ccc(Cl)cc2)C(C)C)c1=O [Compound 543] , report Plant response rating, Sugarbeets.
## Output 3
